In this section we review reported pKi values for a set of compounds.
Target: UniProt:P09958
Assay: Inhibition of recombinant soluble human furin using pyroGlu-Arg-Thr-Lys-Arg-methyl-coumaryl-7-amide as substrate measured after 1 hr
# pKi is unitless: minus log10 of the molar concentration; print number only

SMILES CODE | pKi
CC(=O)N[C@@H](CCCNC(=N)N)C(=O)N[C@@H](C)C(=O)N[C@@H](CCCNC(=N)N)C(=O)N[C@@H](CCCCN)C(=O)N[C@@H](CCCNC(=N)N)C(=O)N[C@@H](CCCCN)C(=O)N[C@@H](CCCCN)C(=O)N[C@@H](CCCNC(=N)N)C(=O)N[C@H](C(N)=O)[C@@H](C)O | 8.15

Continue with the next compound.
So what does the record say about pKi for `CC(=O)N[C@@H](CCCNC(=N)N)C(=O)N[C@@H](Cc1ccccc1)C(=O)N[C@@H](CCCNC(=N)N)C(=O)N[C@@H](CCCNC(=N)N)C(=O)N[C@@H](CCCNC(=N)N)C(=O)N[C@@H](CCCCN)C(=O)N[C@@H](CCCCN)C(=O)N[C@@H](CCCNC(=N)N)C(=O)N[C@H](C(N)=O)[C@@H](C)O` ?
7.64

---

Target: Proprotein convertase subtilisin/kexin type 6 (Homo sapiens)
Experiment: Inhibition of recombinant soluble human PACE4 using pyroGlu-Arg-Thr-Lys-Arg-methyl-coumaryl-7-amide as substrate measured after 1 hr
Active and inactive are the calls of the source. No cut-off for these calls is given here.
ENDPOINT NAME: inhibition

SMILES CODE | TESTED TARGET | RESULT
CC[C@H](C)[C@H](NC(=O)[C@H](CCCNC(=N)N)NC(=O)[C@H](C)NC(=O)[C@H](CCCNC(=N)N)NC(C)=O)C(=O)N[C@@H](CCCNC(=N)N)C(=O)N[C@@H](CCCCN)C(=O)N[C@@H](CCCCN)C(=O)N[C@@H](CCCNC(=N)N)C(=O)N[C@H](C(N)=O)[C@@H](C)O | Proprotein convertase subtilisin/kexin type 6 (Homo sapiens) | Active
CC(=O)N[C@@H](CCCNC(=N)N)C(=O)N[C@@H](C)C(=O)N[C@@H](CCCNC(=N)N)C(=O)N[C@@H](CC(N)=O)C(=O)N[C@@H](CCCNC(=N)N)C(=O)N[C@@H](CCCCN)C(=O)N[C@@H](CCCCN)C(=O)N[C@@H](CCCNC(=N)N)C(=O)N[C@H](C(N)=O)[C@@H](C)O | Proprotein convertase subtilisin/kexin type 6 (Homo sapiens) | Active
CC(=O)N[C@@H](CCCNC(=N)N)C(=O)N[C@@H](C)C(=O)N[C@@H](CCCNC(=N)N)C(=O)N[C@@H](Cc1ccccc1)C(=O)N[C@@H](CCCNC(=N)N)C(=O)N[C@@H](CCCCN)C(=O)N[C@@H](CCCCN)C(=O)N[C@@H](CCCNC(=N)N)C(=O)N[C@H](C(N)=O)[C@@H](C)O | Proprotein convertase subtilisin/kexin type 6 (Homo sapiens) | Active
CC(=O)N[C@@H](CCCNC(=N)N)C(=O)N[C@@H](C)C(=O)N[C@@H](CCCNC(=N)N)C(=O)N[C@@H](CCCNC(=N)N)C(=O)N[C@@H](CCCNC(=N)N)C(=O)N[C@@H](CCCCN)C(=O)N[C@@H](CCCCN)C(=O)N[C@@H](CCCNC(=N)N)C(=O)N[C@H](C(N)=O)[C@@H](C)O | Proprotein convertase subtilisin/kexin type 6 (Homo sapiens) | Active

---

Molecular target: Furin (Homo sapiens)
Sequence (P09958 whole entry): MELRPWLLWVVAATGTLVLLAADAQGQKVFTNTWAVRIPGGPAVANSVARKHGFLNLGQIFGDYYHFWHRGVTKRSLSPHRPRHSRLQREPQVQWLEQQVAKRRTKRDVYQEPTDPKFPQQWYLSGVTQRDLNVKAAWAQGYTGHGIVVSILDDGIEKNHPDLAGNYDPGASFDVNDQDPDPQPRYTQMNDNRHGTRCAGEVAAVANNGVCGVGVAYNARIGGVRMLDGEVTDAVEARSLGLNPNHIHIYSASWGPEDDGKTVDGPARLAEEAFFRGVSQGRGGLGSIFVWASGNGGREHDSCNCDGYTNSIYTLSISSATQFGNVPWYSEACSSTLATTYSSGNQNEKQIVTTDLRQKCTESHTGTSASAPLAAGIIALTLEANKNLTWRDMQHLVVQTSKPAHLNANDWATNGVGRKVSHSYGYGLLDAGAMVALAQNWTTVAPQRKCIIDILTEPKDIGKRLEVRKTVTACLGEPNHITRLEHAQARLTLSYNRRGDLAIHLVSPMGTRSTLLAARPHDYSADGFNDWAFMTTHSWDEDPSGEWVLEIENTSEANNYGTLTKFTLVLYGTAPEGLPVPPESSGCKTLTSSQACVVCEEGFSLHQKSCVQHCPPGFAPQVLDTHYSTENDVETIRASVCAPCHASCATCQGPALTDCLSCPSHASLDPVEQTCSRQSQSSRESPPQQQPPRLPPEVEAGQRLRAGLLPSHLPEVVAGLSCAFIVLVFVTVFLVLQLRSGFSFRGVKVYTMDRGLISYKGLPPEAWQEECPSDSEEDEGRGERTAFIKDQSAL
Experiment: Inhibition of recombinant soluble human furin using pyroGlu-Arg-Thr-Lys-Arg-methyl-coumaryl-7-amide as substrate measured after 1 hr
Where a SMILES comes first, the peptide text is derived from it.
# strict inequality: Ki < 20 nM yields label 1, everything else yields label 0

COMPOUND | CLASS
CC[C@H](C)[C@H](NC(=O)[C@H](CCCNC(=N)N)NC(=O)[C@H](C)NC(=O)[C@H](CCC(N)=O)NC(C)=O)C(=O)N[C@@H](CCCNC(=N)N)C(=O)N[C@@H](CCCCN)C(=O)N[C@@H](CCCCN)C(=O)N[C@@H](CCCNC(=N)N)C(=O)N[C@H](C(N)=O)[C@@H](C)O (Ac-QARIRKKRT-NH2) | label 1
CC(=O)N[C@@H](CCCNC(=N)N)C(=O)N[C@@H](C)C(=O)N[C@@H](CCCNC(=N)N)C(=O)N1CCC[C@H]1C(=O)N[C@@H](CCCNC(=N)N)C(=O)N[C@@H](CCCCN)C(=O)N[C@@H](CCCCN)C(=O)N[C@@H](CCCNC(=N)N)C(=O)N[C@H](C(N)=O)[C@@H](C)O | label 1
CC(=O)N[C@@H](CCCCN)C(=O)N[C@@H](C)C(=O)N[C@@H](CCCNC(=N)N)C(=O)N[C@@H](CCCNC(=N)N)C(=O)N[C@@H](CCCNC(=N)N)C(=O)N[C@@H](CCCCN)C(=O)N[C@@H](CCCCN)C(=O)N[C@@H](CCCNC(=N)N)C(=O)N[C@H](C(N)=O)[C@@H](C)O | label 1
CSCC[C@H](NC(=O)[C@H](C)NC(=O)[C@H](CCCNC(=N)N)NC(C)=O)C(=O)N[C@@H](CCCNC(=N)N)C(=O)N[C@@H](CCCNC(=N)N)C(=O)N[C@@H](CCCCN)C(=O)N[C@@H](CCCCN)C(=O)N[C@@H](CCCNC(=N)N)C(=O)N[C@H](C(N)=O)[C@@H](C)O | label 0
CC(=O)N[C@@H](CCCNC(=N)N)C(=O)N[C@@H](C)C(=O)N[C@@H](Cc1ccccc1)C(=O)N[C@@H](CCCNC(=N)N)C(=O)N[C@@H](CCCNC(=N)N)C(=O)N[C@@H](CCCCN)C(=O)N[C@@H](CCCCN)C(=O)N[C@@H](CCCNC(=N)N)C(=O)N[C@H](C(N)=O)[C@@H](C)O | label 0
CC(=O)N[C@@H](CCCNC(=N)N)C(=O)N[C@@H](C)C(=O)N[C@@H](Cc1c[nH]cn1)C(=O)N[C@@H](CCCNC(=N)N)C(=O)N[C@@H](CCCNC(=N)N)C(=O)N[C@@H](CCCCN)C(=O)N[C@@H](CCCCN)C(=O)N[C@@H](CCCNC(=N)N)C(=O)N[C@H](C(N)=O)[C@@H](C)O | label 0

Then there is this compound:
Take the compound `CC(=O)N[C@@H](CCCNC(=N)N)C(=O)N1CCC[C@H]1C(=O)N[C@@H](CCCNC(=N)N)C(=O)N[C@@H](CCCNC(=N)N)C(=O)N[C@@H](CCCNC(=N)N)C(=O)N[C@@H](CCCCN)C(=O)N[C@@H](CCCCN)C(=O)N[C@@H](CCCNC(=N)N)C(=O)N[C@H](C(N)=O)[C@@H](C)O` and say whether its Ki is less than 20 nM.
label 1

---

Target: UniProtKB P09958
Experiment: Inhibition of recombinant soluble human furin using pyroGlu-Arg-Thr-Lys-Arg-methyl-coumaryl-7-amide as substrate measured after 1 hr
Where a SMILES comes first, the peptide text is derived from it. Bridges are numbered along the chain shown (N, C = ends). [ ]: non-standard residue; d: D form. Abu = CC[C@H](N)C(=O)O
# pKi per record follows
In simple prose, pKi is minus the logarithm base ten of a concentration in moles per litre.

Recorded pKi for CC(=O)N[C@@H](CCCNC(=N)N)C(=O)N[C@@H](C)C(=O)N[C@@H](CCCNC(=N)N)C(=O)N[C@H]1CCCCNC(=O)[C@H](CCCNC(=N)N)NC(=O)[C@H](CCCCN)NC(=O)[C@H](CCCCN)NC(=O)[C@H](CCCNC(=N)N)NC(=O)[C@H]([C@@H](C)O)NC1=O (Ac-RARKTRKKR; lactam 4-C) , please?
5.60

Can you handle `CC(=O)N[C@@H](CCCNC(=N)N)C(=O)N[C@H](C(=O)N[C@@H](CCCNC(=N)N)C(=O)N[C@@H](CCCNC(=N)N)C(=O)N[C@@H](CCCNC(=N)N)C(=O)N[C@@H](CCCCN)C(=O)N[C@@H](CCCCN)C(=O)N[C@@H](CCCNC(=N)N)C(=O)N[C@H](C(N)=O)[C@@H](C)O)[C@@H](C)O` next?
7.80

Moving on to `CC(=O)N[C@@H](CC(C)C)C(=O)N[C@@H](C)C(=O)N[C@@H](CCCNC(=N)N)C(=O)N[C@@H](CCCNC(=N)N)C(=O)N[C@@H](CCCNC(=N)N)C(=O)N[C@@H](CCCCN)C(=O)N[C@@H](CCCCN)C(=O)N[C@@H](CCCNC(=N)N)C(=O)N[C@H](C(N)=O)[C@@H](C)O`
7.92

Consider next the compound CC[C@H](C)[C@H](NC(=O)[C@H](CCCNC(=N)N)NC(=O)[C@H](C)NC(=O)CNC(C)=O)C(=O)N[C@@H](CCCNC(=N)N)C(=O)N[C@@H](CCCCN)C(=O)N[C@@H](CCCCN)C(=O)N[C@@H](CCCNC(=N)N)C(=O)N[C@H](C(N)=O)[C@@H](C)O (Ac-GARIRKKRT-NH2) in the same way.
8.05

Also CC[C@H](C)[C@H](NC(=O)[C@H](CCCNC(=N)N)NC(=O)[C@H](C)NC(=O)[C@@H]1CCCN1C(C)=O)C(=O)N[C@@H](CCCNC(=N)N)C(=O)N[C@@H](CCCCN)C(=O)N[C@@H](CCCCN)C(=O)N[C@@H](CCCNC(=N)N)C(=O)N[C@H](C(N)=O)[C@@H](C)O (Ac-PARIRKKRT-NH2) , if possible.
8.10

// repeat for `CC(=O)N[C@@H](CCCNC(=N)N)C(=O)N[C@@H](C)C(=O)N[C@@H](CCCNC(=N)N)C(=O)NCC(=O)N[C@@H](CCCNC(=N)N)C(=O)N[C@@H](CCCCN)C(=O)N[C@@H](CCCCN)C(=O)N[C@@H](CCCNC(=N)N)C(=O)N[C@H](C(N)=O)[C@@H](C)O` and report
7.44

Continue with CC[C@H](NC(C)=O)C(=O)N[C@@H](C)C(=O)N[C@@H](CCCNC(=N)N)C(=O)N[C@H](C(=O)N[C@@H](CCCNC(=N)N)C(=O)N[C@@H](CCCCN)C(=O)N[C@@H](CCCCN)C(=O)N[C@@H](CCCNC(=N)N)C(=O)N[C@H](C(N)=O)[C@@H](C)O)[C@@H](C)CC (Ac-[Abu]ARIRKKRT-NH2)
8.22
